Target: Casein kinase II subunit alpha (Homo sapiens, UniProt P68400)
Sequence (P68400 whole entry): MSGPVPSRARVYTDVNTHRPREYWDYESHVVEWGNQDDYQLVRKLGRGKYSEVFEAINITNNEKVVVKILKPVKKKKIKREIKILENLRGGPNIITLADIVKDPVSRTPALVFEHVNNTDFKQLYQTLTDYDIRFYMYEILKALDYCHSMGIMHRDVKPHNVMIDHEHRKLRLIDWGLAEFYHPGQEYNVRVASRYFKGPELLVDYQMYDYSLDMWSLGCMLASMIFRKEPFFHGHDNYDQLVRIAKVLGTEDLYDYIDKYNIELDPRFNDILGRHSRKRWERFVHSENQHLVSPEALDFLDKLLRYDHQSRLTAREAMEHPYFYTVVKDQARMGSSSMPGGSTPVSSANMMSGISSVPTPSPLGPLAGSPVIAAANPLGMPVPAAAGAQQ
Assay: Competitive inhibition of human wild type CK2alpha by Dixon plot analysis
Experimental Readout: pKi
Just the number, please; pKi means minus log10 of the concentration in mol/L.

Example entries and their recorded answers appear below.
# Item Smiles, pKi
rows = [
    ("Cc1nc2c(I)c(Cl)c(Cl)c(I)c2[nH]1", 6.70),
    ("CS(=O)(=O)c1nc2c(Br)c(Br)c(Br)c(Br)c2[nH]1", 6.82),
]

Asked: Provide pKi, tested on Casein kinase II subunit alpha (Homo sapiens, UniProt P68400), for Clc1c(Cl)c(I)c2[nH]cnc2c1I .
Given back: 6.52

---

Target: Casein kinase II subunit alpha (Homo sapiens)
Test: Inhibition of CK2alpha (unknown origin)
Experimental Readout: pKi
Just the number, please; pKi means minus log10 of the concentration in mol/L.

Asked: For the compound FC(F)(F)c1nc2c(Br)c(Br)c(Br)c(Br)c2[nH]1 , give its measured pKi value.
Given back: 6.40
